Origin of values: paper PMC10841594

# EXPERIMENTAL_PROTOCOL: Pharmacokinetic study, plasma LC-MS/MS
# Assay type: in vivo, C57BL6 mice
# RUN_CONDITIONS: C57BL/6, mouse, ip, 20 mg/kg

{"MOLECULE": "CN(CCN(C)C(=O)O[C@@H]1CCC[C@]2(C1)OOC1(O2)C2CC3CC(C2)CC1C3)C(=O)Oc1ccc2nc(C3=N[C@@H](C(=O)O)CS3)sc2c1 (stereo partly shown)", "MEASUREMENT_UNITS": "h", "Tmax": 1}

---

# EXPERIMENTAL_PROTOCOL: Pharmacokinetic study, plasma LC-MS/MS
# Type: in vivo, C57BL6 mice
# RUN_CONDITIONS: C57BL/6, mouse, ip, 20 mg/kg

{"COMPOUND": "CN(CCN(C)C(=O)O[C@@H]1CCC[C@]2(C1)OOC1(O2)C2CC3CC(C2)CC1C3)C(=O)Oc1ccc2nc(C3=N[C@@H](C(=O)O)CS3)sc2c1 (stereo partly shown)", "Cmax": "5.91 µM"}
